Experiment: small-molecule microarray binders of probe aShh, primary screen, biochemical, biotinylated probe, 635/667 nm fluorescence (AID 1114);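 further: probe is biotin-labelled aShh protein from a stem cell growth factor screen; measures binding of labelled protein to compounds printed on the slide; score merges feature fluorescence at 667 nm with signal-to-noise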
Conditions: higher = more signal
Quick reference: composite z-score of the listed items.
READOUT_TYPE: composite z-score

>  <MOLECULE>
CO[C@H]1O[C@H](CO)[C@@H](OC(=O)Nc2ccccc2)[C@H](OC(=O)Nc2ccc3c(c2)OCO3)[C@H]1OC(=O)Nc1ccc2c(c1)OCO2

>  <READOUT_TYPE>
composite z-score

>  <ENDPOINT_VALUE>
0.0898

$$$$
>  <MOLECULE>
O=C1O[C@H](c2ccccc2)[C@H](c2ccccc2)N2[C@H]1[C@@H](C(=O)NC[C@H](O)c1ccccc1)[C@]1(C(=O)Nc3ccc(C#CC4(O)CCCCCC4)cc31)[C@H]2c1ccc(O)cc1

>  <READOUT_TYPE>
composite z-score

>  <ENDPOINT_VALUE>
-0.0769

$$$$
>  <MOLECULE>
NC(=O)N1C(=O)C2C(C1=O)C1C=C(c3ccc(CO)cc3)C2C(C2CC2)N1Cc1cc2c(cc1Br)OCO2 (stereo not drawn)

>  <READOUT_TYPE>
composite z-score

>  <ENDPOINT_VALUE>
-0.0146

$$$$
>  <MOLECULE>
O=C(O)[C@H]1C[C@H]2C(=O)NCC(=O)N2[C@H]1c1cccc(OCCO)c1

>  <READOUT_TYPE>
composite z-score

>  <ENDPOINT_VALUE>
0.0118

$$$$
>  <MOLECULE>
O=C1c2ccccc2C(=O)c2cc([C@H]3Oc4ccccc4S(=O)(=O)N4CCC[C@@H]34)ccc21

>  <READOUT_TYPE>
composite z-score

>  <ENDPOINT_VALUE>
-0.214

$$$$
>  <MOLECULE>
NCCCCCNC(=O)[C@H]1C[C@H]2C(=O)NCC(=O)N2[C@H]1c1ccc(O)cc1

>  <READOUT_TYPE>
composite z-score

>  <ENDPOINT_VALUE>
-0.206

$$$$
>  <MOLECULE>
C=CCN1C(=O)[C@@]2(O[C@@H](CCO)[C@H]([Si](C)(C)c3ccc(OC)cc3)[C@H]2C)c2cc(N(C=O)c3ccccc3)ccc21

>  <READOUT_TYPE>
composite z-score

>  <ENDPOINT_VALUE>
-0.138

$$$$
>  <MOLECULE>
CC(=O)NCCCC[C@@H]1NC(=O)[C@@H]2C[C@H](C(=O)O)[C@H](c3cccc(OCCO)c3)N2C1=O

>  <READOUT_TYPE>
composite z-score

>  <ENDPOINT_VALUE>
-0.0626

$$$$
>  <MOLECULE>
C=CC[C@]1(C(=O)N(C)C)N=C(c2ccc(OCCCO)cc2)O[C@H]1c1ccccc1CN=[N+]=[N-]

>  <READOUT_TYPE>
composite z-score

>  <ENDPOINT_VALUE>
-0.174

$$$$
>  <MOLECULE>
CC(C)(C)OC(=O)CC[C@]1(C(=O)NCc2ccccc2)COC(c2ccc(OCCCO)cc2)=N1

>  <READOUT_TYPE>
composite z-score

>  <ENDPOINT_VALUE>
-0.138

$$$$
>  <MOLECULE>
CC(C)CNC(=O)[C@@H]1c2ccccc2C(=O)N(Cc2ccc(OC(F)(F)F)cc2)[C@H]1c1ccc(CO)cc1

>  <READOUT_TYPE>
composite z-score

>  <ENDPOINT_VALUE>
-0.0234

$$$$
>  <MOLECULE>
COc1ccc([Si](C)(C)[C@H]2[C@H](CC(=O)N(CCO)Cc3ccccc3)O[C@@]3(C(=O)N(Cc4cccc(N5C(=O)COc6ccccc65)c4)c4ccccc43)[C@@H]2C)cc1

>  <READOUT_TYPE>
composite z-score

>  <ENDPOINT_VALUE>
0.564

$$$$
>  <MOLECULE>
O=C1N(CCS(=O)(=O)c2ccccc2)Cc2ccccc2[C@@H]2OC(c3ccc(OCCCO)cc3)=N[C@]12Cc1ccccc1

>  <READOUT_TYPE>
composite z-score

>  <ENDPOINT_VALUE>
0.191

$$$$
>  <MOLECULE>
C=CCC(OC(C)=O)[C@@H]1[C@@H](N(Cc2cccc3ccccc23)C(=O)c2cccc3ccccc23)c2cc(OCCCO)ccc2N1C(=O)Cc1ccc(OC)cc1 (stereo partly drawn)

>  <READOUT_TYPE>
composite z-score

>  <ENDPOINT_VALUE>
0.0284

$$$$
>  <MOLECULE>
CCOC(=O)C[C@H]1[C@H](OC(=O)c2ccc(-c3ccccc3)cc2)[C@@H](NC(=O)c2ccccc2)c2cc(OCCCO)ccc2N1C(=O)c1ccccc1

>  <READOUT_TYPE>
composite z-score

>  <ENDPOINT_VALUE>
0.275

$$$$
>  <MOLECULE>
C/C=C/[C@@H](CCn1cc(CCO[Si](C(C)C)(C(C)C)C(C)C)nn1)[Si](C)(C)c1ccc(OC)cc1

>  <READOUT_TYPE>
composite z-score

>  <ENDPOINT_VALUE>
-0.323

$$$$
>  <MOLECULE>
Cc1ccc(N2C(=O)c3ccccc3[C@](C)(C(=O)NCC(F)(F)F)[C@@H]2c2ccc(CO)cc2)nc1

>  <READOUT_TYPE>
composite z-score

>  <ENDPOINT_VALUE>
-0.291

$$$$
>  <MOLECULE>
CC(=O)OC(C/C=C\B1OC(C)(C)C(C)(C)O1)c1ccccc1 (stereo not drawn)

>  <READOUT_TYPE>
composite z-score

>  <ENDPOINT_VALUE>
-0.0813

$$$$
>  <MOLECULE>
COCCOC(=O)N1C(=O)[C@@]2(c3cc(C#CCNC(N)=O)ccc31)[C@H](c1ccccc1OCCO)N1[C@H](c3ccccc3)[C@H](c3ccccc3)OC(=O)[C@H]1[C@@H]2C(=O)Nc1nc2ccccc2s1

>  <READOUT_TYPE>
composite z-score

>  <ENDPOINT_VALUE>
0.284

$$$$
>  <MOLECULE>
O=C(NCc1ccccc1)[C@@H]1c2ccccc2C(=O)N(Cc2ccccc2Cl)[C@H]1c1ccc(CO)cc1

>  <READOUT_TYPE>
composite z-score

>  <ENDPOINT_VALUE>
0.123

$$$$
>  <MOLECULE>
Cc1ccc(S[C@]2(C(=O)NCC(C)C)CC(=O)N(C(C)C)[C@@H]2c2ccc(CO)cc2)cc1

>  <READOUT_TYPE>
composite z-score

>  <ENDPOINT_VALUE>
-0.137

$$$$
>  <MOLECULE>
COc1ccc(/C=C/C(=O)c2cccc(OCC(=O)OC(C)(C)C)c2)cc1

>  <READOUT_TYPE>
composite z-score

>  <ENDPOINT_VALUE>
-0.2

$$$$
>  <MOLECULE>
C=CCC(OC(C)=O)[C@@H]1[C@@H](N(Cc2cc3ccccc3o2)C(=O)c2ccc(-c3ccccc3)cc2)c2cc(OCCCO)ccc2N1C(=O)c1ccc(-c2ccccc2)cc1 (stereo partly drawn)

>  <READOUT_TYPE>
composite z-score

>  <ENDPOINT_VALUE>
-0.282

$$$$
>  <MOLECULE>
CCCCCN1CC=CC23O[C@@H]4/C=C\CCC(C)OC(=O)C4[C@H]2C(=O)N(CCCO)[C@@H]3C1=O (stereo partly drawn)

>  <READOUT_TYPE>
composite z-score

>  <ENDPOINT_VALUE>
-0.2

$$$$
>  <MOLECULE>
C=CCOC(=O)[C@H]1[C@@H]2C(=O)O[C@@H](c3ccccc3)[C@@H](c3ccccc3)N2[C@@H](c2ccc(OCCOC(=O)[C@H]3C[C@H]4C(=O)N5CCC[C@H]5C(=O)N4[C@H]3c3cccc(OCCO)c3)cc2)[C@]12C(=O)Nc1ccccc12

>  <READOUT_TYPE>
composite z-score

>  <ENDPOINT_VALUE>
0.263

$$$$
>  <MOLECULE>
O=C1O[C@H](c2ccccc2)[C@H](c2ccccc2)N2[C@H]1[C@@H](C(=O)Nc1nc3ccccc3s1)[C@]1(C(=O)Nc3ccc(C#CCCO)cc31)[C@H]2c1ccccc1OCCO

>  <READOUT_TYPE>
composite z-score

>  <ENDPOINT_VALUE>
0.355

$$$$
>  <MOLECULE>
COC(=O)C(CC#Cc1ccc2c(c1)[C@]1(C(=O)N2)[C@H](C(=O)O)[C@H]2C(=O)O[C@H](c3ccccc3)[C@H](c3ccccc3)N2[C@@H]1c1ccc(OCCO)cc1)C(=O)OC

>  <READOUT_TYPE>
composite z-score

>  <ENDPOINT_VALUE>
0.166

$$$$
>  <MOLECULE>
C=CCC(OC(C)=O)[C@@H]1[C@@H](N(Cc2ccc(-c3cccc(C(F)(F)F)c3)o2)C(=O)c2ccc(-c3ccccc3)cc2)c2cc(OCCCO)ccc2N1C(=O)Cc1ccc(OC)cc1 (stereo partly drawn)

>  <READOUT_TYPE>
composite z-score

>  <ENDPOINT_VALUE>
-0.0931

$$$$
